experiment: physchem; details: pH 1.2 aqueous buffer, 37 °C, pH 1.2, simulated gastric fluid, thermodynamic from solid, 1 h Solubility, pH 1.2 medium, 1 h
Where a name gives a salt, the structure may show the parent alone.
parameter_measured: solubility at 1 h (µg/mL)
A number alone suffices; assume µg/mL.

*Q* What value of solubility at 1 h has been recorded for this entry: C#CCOc1ccc(/C=C/C(=O)Nc2ccccc2C(=O)O)cc1OC [Ethanolamine salt]
*A* 8

----------
Assay: Oral pharmacokinetic study in Sprague-Dawley rats
Conditions: rat, single oral dose 20 mg/kg, plasma, mean
Method: Bioavailability is determined by the equation AUC=F·D/CLT, wherein AUC is the area under the plot of plasma concentration, F is the absolute bioavailability, D is the dose, and CLT is the total clearance. The rats received a single oral dose of 20 mg/kg body weight (b.w.). The doses were prepared as a 2.0 mg/mL suspension in a vehicle of 20 mM Na2HPO4 buffer containing 5% (v/v) DMSO, 0.4% (v/v) 1M NaOH and 0.4% (v/v) Tween 80 and a dose volume of 10 mL/kg b.w. […]
parameter_measured: t1/2 (h)
A number alone suffices; assume h.

// worked examples, t1/2 included
compound: C#CCOc1ccc(/C=C/C(=O)Nc2ccccc2C(=O)O)cc1OC.N [Ammonium salt]
value_units: h
t1/2: 3.62

compound: C#CCOc1ccc(/C=C/C(=O)Nc2ccccc2C(=O)O)cc1OC.NC(CO)(CO)CO [Tris salt]
value_units: h
t1/2: 4.02

compound: C#CCOc1ccc(/C=C/C(=O)Nc2ccccc2C(=O)[O-])cc1OC.[K+] [Potassium salt]
value_units: h
t1/2: 4.21

# context switch: different compound, same t1/2
*Q* What value of t1/2 has been recorded for this entry: C#CCOc1ccc(/C=C/C(=O)Nc2ccccc2C(=O)O)cc1OC.CC(C)(C)N [tert-Butylamine (TBA) salt]
*A* 4.18
